# Test system: HBsAg
# EXPERIMENT DESCRIPTION: HBsAg assay (chemiluminescence immunoassay of secreted HBsAg in HepG2.2.15 culture supernatant)
# Assay type: cell-based, HBV
# RECORDED CONDITIONS: Hepatitis B virus, HepG2.2.15, HBsAg secretion reduced by 50% vs no drug control; HepG2.2.15 cells; CLIA kit
# Protocol: HepG2.2.15 cells (Acs et al. Proc Natl Acad Sci USA, 84, (1987), 4641-4), a constitutively HBV-expressing cell line were cultured in DMEM+Glutamax-I medium (Invitrogen, Carlsbad, Calif., USA), supplemented with 10% fetal bovine serum (Invitrogen) and G418 (Invitrogen) at a final concentration of 200 mg/L and maintained in 5% CO2 at 37° C. HepG2.2.15 cells were seeded in duplicate into white, 96-well plates at 1.5×10^4 cells/well. […]
METRIC: pIC50
// pIC50: -log10(molar conc.)

Some molecules with recorded pIC50:
{"MOLECULE": "COc1cc2c(cc1OCCN)CC(C(C)(C)C)n1cc(C(=O)O)c(=O)cc1-2 (centres unmarked)", "SYSTEM UNDER TEST": "HBsAg", "pIC50": 5.86}
{"MOLECULE": "COc1cc2c(cc1OC)-c1cc(=O)c(C(=O)O)cn1C(C(F)(F)F)C2 (centres unmarked)", "SYSTEM UNDER TEST": "HBsAg", "pIC50": 6.82}
{"MOLECULE": "COCCCCOc1cc2c(cc1OC)-c1cc(=O)c(C(=O)O)cn1C(C(C)C)C2 (centres unmarked)", "SYSTEM UNDER TEST": "HBsAg", "pIC50": 8.30}
{"MOLECULE": "COc1cc2c(cc1OCCCCCNC(=O)OC(C)(C)C)CC(C(C)(C)C)n1cc(C(=O)O)c(=O)cc1-2 (centres unmarked)", "SYSTEM UNDER TEST": "HBsAg", "pIC50": 8.70}
{"MOLECULE": "CCOc1ccc(C#N)c2c1-c1cc(=O)c(C(=O)O)cn1C(CC)C2 (centres unmarked)", "SYSTEM UNDER TEST": "HBsAg", "pIC50": 5.11}
{"MOLECULE": "CCNCCOCCCOc1cc2c(cc1OC)-c1cc(=O)c(C(=O)O)cn1C(C(C)(C)C)C2 (centres unmarked)", "SYSTEM UNDER TEST": "HBsAg", "pIC50": 7.42}

Write down pIC50 measured for item COc1cc2c(cc1OCCCC(=O)O)CC(C(C)(C)C)n1cc(C(=O)O)c(=O)cc1-2 (centres unmarked) 6.84

Write down pIC50 measured for item CCC1Cc2c(ccc(C)c2C)-c2cc(=O)c(C(=O)O)cn21 (centres unmarked) 6.19

====

# Tested on: HBsAg
# EXPERIMENT DESCRIPTION: HBsAg assay (chemiluminescence immunoassay of secreted HBsAg in HepG2.2.15 culture supernatant)
# Assay type: cell-based, HBV
# RECORDED CONDITIONS: Hepatitis B virus, HepG2.2.15, HBsAg secretion reduced by 50% vs no drug control; HepG2.2.15 cells; CLIA kit
# Lookup of reported pIC50 keyed by entry
// pIC50: -log10(molar conc.)

{"MOLECULE": "CCC1Cc2cc(C)c(C)cc2-c2cc(=O)c(C(=O)O)cn21 (centres unmarked)", "pIC50": 6.85}
{"MOLECULE": "CCc1cc2c(cc1OC)CC(CC)n1cc(C(=O)O)c(=O)cc1-2 (centres unmarked)", "pIC50": 7.70}
{"MOLECULE": "COc1cc2c(cc1OCCCCCNC(C)=O)CC(C(C)(C)C)n1cc(C(=O)O)c(=O)cc1-2 (centres unmarked)", "pIC50": 7.48}
{"MOLECULE": "COc1cc2c(cc1OCc1ccccc1)CC(C)n1cc(C(=O)O)c(=O)cc1-2 (centres unmarked)", "pIC50": 7.89}
{"MOLECULE": "CCC1Cc2cc(OCCNS(C)(=O)=O)c(OC)cc2-c2cc(=O)c(C(=O)O)cn21 (centres unmarked)", "pIC50": 5.48}
{"MOLECULE": "CC[C@@H]1[C@@H](C)c2cc(OCCOC)c(Cl)cc2-c2cc(=O)c(C(=O)O)cn21 (relative stereo) [Example 212A]", "pIC50": 6.48}
{"MOLECULE": "CCC1Cc2cc(OCCO)c(OC)cc2-c2cc(=O)c(C(=O)O)cn21 (centres unmarked)", "pIC50": 6.35}

--- query ---
Answer with pIC50 of CCC1Cc2cc(OCCCO)c(OC)cc2-c2cc(=O)c(C(=O)O)cn21 (centres unmarked) measured for HBsAg. 6.81
